meta.source: paper PMC4336329

- Tgt: human ether-à-go-go-related gene (hERG) potassium channel (human, UniProt Q12809)
- Sequence (Q12809 whole entry, looked up): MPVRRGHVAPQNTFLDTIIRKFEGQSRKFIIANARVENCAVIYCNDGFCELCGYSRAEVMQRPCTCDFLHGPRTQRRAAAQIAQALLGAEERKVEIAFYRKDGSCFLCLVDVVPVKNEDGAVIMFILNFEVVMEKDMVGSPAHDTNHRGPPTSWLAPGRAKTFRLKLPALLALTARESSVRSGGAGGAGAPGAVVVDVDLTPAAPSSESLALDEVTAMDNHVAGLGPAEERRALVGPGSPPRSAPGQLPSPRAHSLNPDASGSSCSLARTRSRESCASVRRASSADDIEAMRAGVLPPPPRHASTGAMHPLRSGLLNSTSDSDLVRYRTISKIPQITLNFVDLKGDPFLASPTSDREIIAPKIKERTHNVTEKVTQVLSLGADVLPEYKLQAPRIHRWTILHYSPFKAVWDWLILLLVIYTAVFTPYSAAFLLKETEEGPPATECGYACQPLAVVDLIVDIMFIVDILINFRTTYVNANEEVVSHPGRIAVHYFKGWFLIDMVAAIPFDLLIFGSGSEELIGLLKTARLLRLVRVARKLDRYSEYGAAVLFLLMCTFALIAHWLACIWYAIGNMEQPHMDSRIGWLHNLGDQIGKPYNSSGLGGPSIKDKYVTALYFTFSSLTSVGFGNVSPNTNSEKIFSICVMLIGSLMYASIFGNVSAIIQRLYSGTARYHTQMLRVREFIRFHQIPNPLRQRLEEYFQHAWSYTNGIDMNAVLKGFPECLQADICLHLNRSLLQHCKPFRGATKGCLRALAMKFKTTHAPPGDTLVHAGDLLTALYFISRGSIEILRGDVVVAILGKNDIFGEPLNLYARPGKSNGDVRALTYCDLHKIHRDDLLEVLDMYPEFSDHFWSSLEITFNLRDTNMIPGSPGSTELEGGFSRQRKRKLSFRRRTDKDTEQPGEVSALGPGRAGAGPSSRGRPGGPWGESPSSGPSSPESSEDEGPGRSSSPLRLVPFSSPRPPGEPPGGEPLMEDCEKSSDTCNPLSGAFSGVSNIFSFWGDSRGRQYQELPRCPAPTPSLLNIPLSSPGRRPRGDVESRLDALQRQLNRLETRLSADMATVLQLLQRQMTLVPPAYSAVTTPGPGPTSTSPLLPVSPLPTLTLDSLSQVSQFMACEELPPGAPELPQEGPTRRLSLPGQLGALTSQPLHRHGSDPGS
- Test description: primary screen, population patch clamp on CHO cells stably expressing hERG; higher = less effect of the substance;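 note: peak tail current of the secondary pulse compared with the same well before compound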
Screen size: about 310,000 compounds; about 14,000 (4.5%) showed an effect of 50% or more. The effect is printed as a negative number. What follows is part of a selection rich in strong results, with near analogues and random picks from the rest.
Measurement name: hERG current change (%, negative = inhibition) at 10uM
Please make sure the unit comes right after the number.

Cc1cc(C)nc(CCNC(=O)c2cc(COc3c(F)cccc3F)on2)n1 = 4.72%
Cn1c(=O)[nH]c(=O)c2c1nc(CN(Cc1ccccc1)Cc1ccccc1)n2CCN1CCOCC1 = -16.6%
Cc1ccc(C2=NCCn3c2c2ccc(C(F)(F)F)cc2[n+]3[O-])cc1 = -26.2%
O=C(NCCCN1CCCC1=O)c1nnc(Cc2c(F)cccc2Cl)o1 = 1.34%
COc1ccc2c(C)cc(SCc3c(C)noc3C)nc2c1 = -17%

hERG current change (%, negative = inhibition) at 10uM measured on O=[N+]([O-])c1ccc2c3n([n+]([O-])c2c1)CCN=C3c1ccc(Cl)cc1 = -29.6%

hERG current change (%, negative = inhibition) at 10uM measured on O=C(NCCCN1CCN(Cc2ccccc2)CC1)c1nnc(Cc2c(F)cccc2Cl)o1 = -63.1%

hERG current change (%, negative = inhibition) at 10uM measured on O=C(NCCc1cn2ccccc2n1)c1cc(COc2c(F)cccc2F)on1 = -64.9%

====

- Tgt: human ether-à-go-go-related gene (hERG) potassium channel (human, UniProt Q12809)
- Test description: primary screen, population patch clamp on CHO cells stably expressing hERG; higher = less effect of the substance
In all, about 310,000 compounds went through this assay and about 14,000 (4.5%) showed an effect of 50% or more. Effects have a minus sign here. This is one part of a sample in which strong results are shown more often than they occur.
Parameter threshold = -40%. Response is true (1) when hERG current change (%, negative = inhibition) at 10uM meets or exceeds it, else false (0).

O=C(CN1CCN(c2ccccc2)CC1)NC(=O)NCc1ccco1 = true (1)
Cl.O=C(Nc1cccc(C(F)(F)F)c1)c1cccnc1N1CCN(c2ccccc2)CC1 = true (1)
Cc1nc2ncnn2c(C)c1CCC(=O)N1CCN(Cc2ccccc2)CC1 = true (1)
O=C(Nc1cccc(C(F)(F)F)c1)C1CCCN(c2ncccn2)C1 (stereo not drawn) = false (0)
O=C(NCc1cccc(C(F)(F)F)c1)C1CCCN(c2cnccn2)C1 (stereo not drawn) = false (0)
O=c1[nH]c(=S)c2ncn(-c3ccccc3)c2[nH]1 = true (1)
Cc1nc2ncnn2c(C)c1CCC(=O)N1CCc2ccccc2C1 = false (0)
CCCCn1c(O)c(C(CC)=NCc2ccco2)c(=O)[nH]c1=O = true (1)
Cc1ccc(NC(=O)C2CCCN(c3ncccn3)C2)cc1F (stereo not drawn) = true (1)
Cc1nc2ncnn2c(C)c1CCC(=O)N1CCCCC1 = true (1)

*Q* Does hERG current change (%, negative = inhibition) at 10uM meet or surpass -40% for Cc1cc(NC(=O)CSc2ccc(Cl)cc2)no1 ?
*A* true (1)

*Q* Does hERG current change (%, negative = inhibition) at 10uM meet or surpass -40% for O=C1C(Cl)=C(N2CCOCC2)C(=O)N1c1ccccc1F ?
*A* true (1)

*Q* Does hERG current change (%, negative = inhibition) at 10uM meet or surpass -40% for O=C(Nc1cccc(C(F)(F)F)c1)c1cccnc1N1CCN(CCO)CC1 ?
*A* false (0)

*Q* Does hERG current change (%, negative = inhibition) at 10uM meet or surpass -40% for O=C(CNC(=O)c1cccs1)c1ccc(Br)cc1 ?
*A* true (1)

*Q* Does hERG current change (%, negative = inhibition) at 10uM meet or surpass -40% for CCOC(=O)N1CCN(C(=O)CCc2c(C)nc3nc(C)nn3c2C)CC1 ?
*A* true (1)
